Where these numbers come from: ChEMBL document CHEMBL4138311

Recorded Activity by entry
test system: HOS; test: Cell cycle arrest in human HOS cells assessed as accumulation at S phase after 24 hrs by propidium iodide-staining based flow cytometry (reference value: 37.1 +/- 1.6%); assay type: functional
The answer should read as a number with its unit following.

Sample answers from the record:
MOLECULE	MEASURED TARGET	VAL
CC/C=C\C/C=C\C/C=C\CC1OC1C/C=C\C/C=C\CCC(=O)NCCCO (centres undefined)	HOS	20.7%
CC/C=C\C/C=C\C/C=C\CC1OC1C/C=C\C/C=C\CCC(=O)NC1CC1 (centres undefined)	HOS	30.5%
CC/C=C\C/C=C\C/C=C\CC1OC1C/C=C\C/C=C\CCC(=O)NCCO (centres undefined)	HOS	20.3%

Attention now shifts to the item below.
Briefly, Activity measured for CC/C=C\C/C=C\C/C=C\CC1OC1C/C=C\C/C=C\CCC(=O)NC(C)CO (centres undefined) : 24.3%
